tested on: HOP-92 (Non-Small Cell Lung Carcinoma); assay: Bliss excess, mean over the matrix (fraction); higher = more synergy;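 note: after 72 h of two-drug dosing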
endpoint: Bliss excess
Just the number, please.

Problem: Please give the documented Bliss excess of CC1(C)CCC(CN2CCN(c3ccc(C(=O)NS(=O)(=O)c4ccc(NCC5CCOCC5)c([N+](=O)[O-])c4)c(Oc4cnc5[nH]ccc5c4)c3)CC2)=C(c2ccc(Cl)cc2)C1 [Venetoclax] + C[C@@H]1COCCN1C2=NC(=NC(=C2)C3(CC3)[S@](=N)(=O)C)C4=C5C=CNC5=NC=C4 [AZD6738] (first compound max 1 µM, 7x7, partner max 10 µM)
Solution: -0.0427

Problem: Indicate the recorded Bliss excess value for this compound: Cc1c2c(nn1C)CSCc1cc(n(C)n1)CSc1cc(c3ccccc3c1)OCCCc1c(C(=O)O)n(C)c3c-2c(Cl)ccc13 [AZD5991] + C[C@@H](Nc1cc(F)cc(F)c1)c1cc(C(=O)N(C)C)cc2c(=O)cc(N3CCOCC3)oc12 [AZD8186] (first compound max 1 µM, 7x7, partner max 3 µM)
Solution: 0.0222

Problem: Please report the measured Bliss excess for CC1(C)CCC(CN2CCN(c3ccc(C(=O)NS(=O)(=O)c4ccc(NCC5CCOCC5)c([N+](=O)[O-])c4)c(Oc4cnc5[nH]ccc5c4)c3)CC2)=C(c2ccc(Cl)cc2)C1 [Venetoclax] + Cn1cnc2c(F)c(Nc3ccc(Br)cc3Cl)c(C(=O)NOCCO)cc21 [Selumetinib] (first compound max 1 µM, 7x7, partner max 3 µM)
Solution: -0.0338
